# Assay: Apparent permeability of the compound at pH 7.4 buffer by PAMPA
# Assay type: physicochemical
Property Name: Papp (×10⁻⁶ cm/s)

[[record]]
molecule = "O=C(Nc1c(Cl)cncc1Cl)c1ccc(OC(F)F)c(OCCCCSC(CCO)C(=O)O)c1 (centres undefined)"
measured_number = 0.05


A. O=C(Nc1c(Cl)cncc1Cl)c1ccc(OC(F)F)c(OCCCSC(CCO)C(=O)O)c1 (centres undefined)
B. O=C(Nc1c(Cl)cncc1Cl)c1ccc(OC(F)F)c(OCCCCNC2CCOC2=O)c1 (centres undefined)
**Query** Given the listed items, does A or B have the lesser reported Papp? Provide the label of your selected option as the answer.
**Result** A

---

# Assay: Half life in human lung homogenate after 60 mins by […] analysis
# Type: ADME, tissue-based
Property Name: half-life

[[record]]
compound = "O=C(Nc1c(Cl)cncc1Cl)c1ccc(OC(F)F)c(OCCCNC2CCOC2=O)c1 (stereo not drawn)"
result = "> 60 min"

[[record]]
compound = "O=C(Nc1c(Cl)cncc1Cl)c1ccc(OC(F)F)c(OCCCSC2CCOC2=O)c1 (stereo not drawn)"
result = "39 min"


# context switch: different compound, same half-life
**Query** Which measured half-life value corresponds to O=C(Nc1c(Cl)cncc1Cl)c1ccc(OC(F)F)c(OCCCCNC2CCOC2=O)c1 (stereo not drawn) ?
**Result** > 60 min

---

# Tgt: 3',5'-cyclic-AMP phosphodiesterase 4B (Homo sapiens)
# Sequence (Q07343 whole entry): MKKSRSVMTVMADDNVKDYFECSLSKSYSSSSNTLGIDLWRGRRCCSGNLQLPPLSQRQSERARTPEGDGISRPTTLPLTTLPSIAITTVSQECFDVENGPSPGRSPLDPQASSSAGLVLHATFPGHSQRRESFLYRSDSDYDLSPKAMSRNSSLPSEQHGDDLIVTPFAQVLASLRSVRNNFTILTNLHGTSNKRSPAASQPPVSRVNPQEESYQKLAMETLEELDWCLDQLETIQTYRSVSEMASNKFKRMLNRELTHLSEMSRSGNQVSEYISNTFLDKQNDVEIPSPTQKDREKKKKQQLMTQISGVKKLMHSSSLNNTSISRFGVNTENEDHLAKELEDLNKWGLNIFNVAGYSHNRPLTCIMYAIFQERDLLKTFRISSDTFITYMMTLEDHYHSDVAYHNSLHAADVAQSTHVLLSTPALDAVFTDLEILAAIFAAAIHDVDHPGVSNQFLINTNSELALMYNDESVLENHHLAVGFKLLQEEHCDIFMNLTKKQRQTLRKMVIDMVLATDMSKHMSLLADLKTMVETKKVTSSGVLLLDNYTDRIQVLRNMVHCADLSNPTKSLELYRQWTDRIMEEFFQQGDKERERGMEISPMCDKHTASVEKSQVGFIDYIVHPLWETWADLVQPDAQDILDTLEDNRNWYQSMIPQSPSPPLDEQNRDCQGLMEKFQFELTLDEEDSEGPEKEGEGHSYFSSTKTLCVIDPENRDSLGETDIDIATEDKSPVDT
# Assay: Inhibition of human recombinant PDE4B1 activity assessed as residual cAMP concentration by HTRF assay
Property Name: IC50 (nM)

Here are 10 molecules together with their reported answers.
[[record]]
molecule = "O=C(Nc1c(Cl)cncc1Cl)c1ccc(OC(F)F)c(OCCCSC(CCO)C(=O)O)c1 (stereo not given)"
property_name = "IC50"
measured_number = 5.5

[[record]]
molecule = "O=C(O)CNCCCOc1cc(C(=O)Nc2c(Cl)cncc2Cl)ccc1OC(F)F"
property_name = "IC50"
measured_number = 910

[[record]]
molecule = "COC(=O)CNCCCOc1cc(C(=O)Nc2c(Cl)cncc2Cl)ccc1OC(F)F"
property_name = "IC50"
measured_number = 21

[[record]]
molecule = "O=C(Nc1c(Cl)cncc1Cl)c1ccc(OC(F)F)c(OCCCNC(CCO)C(=O)O)c1 (stereo not given)"
property_name = "IC50"
measured_number = 740

[[record]]
molecule = "O=C(Nc1c(Cl)cncc1Cl)c1ccc(OC(F)F)c(OCCCN[C@@H]2CCOC2=O)c1"
property_name = "IC50"
measured_number = 12

[[record]]
molecule = "O=C(Nc1c(Cl)cncc1Cl)c1ccc(OC(F)F)c(OCCCCNC2CCOC2=O)c1 (stereo not given)"
property_name = "IC50"
measured_number = 4

[[record]]
molecule = "O=C(Nc1c(Cl)cncc1Cl)c1ccc(OC(F)F)c(OCCCN[C@H]2CCOC2=O)c1"
property_name = "IC50"
measured_number = 11

[[record]]
molecule = "O=C(Nc1c(Cl)cncc1Cl)c1ccc(OC(F)F)c(OCCCN[C@@H](CCO)C(=O)O)c1"
property_name = "IC50"
measured_number = 2700

[[record]]
molecule = "O=C(Nc1c(Cl)c[n+]([O-])cc1Cl)c1ccc(OC(F)F)c(OCCCNC2CCOC2=O)c1 (stereo not given)"
property_name = "IC50"
measured_number = 88

[[record]]
molecule = "O=C(Nc1c(Cl)cncc1Cl)c1ccc(OC(F)F)c(OCCCNC2CCOC2=O)c1 (stereo not given)"
property_name = "IC50"
measured_number = 5.4


a. O=C(Nc1c(Cl)cncc1Cl)c1ccc(OC(F)F)c(OCCCSC2CCOC2=O)c1 (stereo not given)
b. O=C(Nc1c(Cl)cncc1Cl)c1ccc(OC(F)F)c(OCCCCSC2CCOC2=O)c1 (stereo not given)
c. O=C(Nc1c(Cl)cncc1Cl)c1ccc(OC(F)F)c(OCCCCNC(CCO)C(=O)O)c1 (stereo not given)
d. O=C(Nc1c(Cl)cncc1Cl)c1ccc(OC(F)F)c(OCCCCSC(CCO)C(=O)O)c1 (stereo not given)
e. O=C(Nc1c(Cl)cncc1Cl)c1ccc(OC(F)F)c(OCCCN[C@H](CCO)C(=O)O)c1
**Query** Put these in order: smallest IC50 first, largest last. Your answer should be the labels, listed in the requested order.
**Result** a, b, d, c, e

Data origin: ChEMBL document CHEMBL3351837
